molecular target: h-GABAA α2β2γ1 (Homo sapiens, UniProt P47869+Q8N1C3); experiment: Radioligand binding assay, [3H]RO7239181 competition, HEK293F membranes
I'd be grateful if you could share measured Ki for these entries.
One number for each entry, in µM.

Here's what some known entries look like.
Find the measured Ki: item Clc1cccnc1C1=NCc2nnc(-c3ccncn3)n2-c2ccc(Br)c(Cl)c21 , target or system h-GABAA α2β2γ1 (Homo sapiens, UniProt P47869+Q8N1C3).
0.0096

Enter reported Ki observed with h-GABAA α2β2γ1 (Homo sapiens, UniProt P47869+Q8N1C3) for Fc1ccccc1C1=NCc2nnc(C3CC3)n2-c2ccc(Br)c(Cl)c21
0.0479

Hi! What's the reported Ki for Fc1cccnc1C1=NCc2nnc(C3CC3)n2-c2ccc(Cl)c(Cl)c21 on h-GABAA α2β2γ1 (Homo sapiens, UniProt P47869+Q8N1C3)?
0.0649

Find the measured Ki: item Fc1cccnc1C1=NCc2nncn2-c2ccc(Cl)c(Cl)c21 , target or system h-GABAA α2β2γ1 (Homo sapiens, UniProt P47869+Q8N1C3).
0.0389

Ki of Cn1cc(-c2nnc3n2-c2ccc(Cl)c(Cl)c2C(c2ncccc2F)=NC3)cn1 on h-GABAA α2β2γ1 (Homo sapiens, UniProt P47869+Q8N1C3)?
0.0331

Answer for every listed entry: what is its Ki? The entries follow.
1. O=c1[nH]nc2n1-c1ccc(Cl)c(Cl)c1C(c1ncccc1F)=NC2
2. Fc1cccc(F)c1C1=NCc2nnc(-c3ccncn3)n2-c2ccc(Cl)c(Cl)c21
3. Cn1cc(-c2nnc3n2-c2ccc(Cl)c(Cl)c2C(c2c(F)cccc2F)=NC3)cn1
4. Fc1ccccc1C1=NCc2nnc(-c3cccnn3)n2-c2ccc(C(F)(F)F)c(Cl)c21

1. 0.0263
2. 0.0104
3. 0.0094
4. 0.0845

Data origin, for the record: patent US20230141603A1
